- experiment_notes: Photostability test: E1%/cm absorbance measurement before and after irradiation with 5 MED
- Assay type: physicochemical
- particulars: E1%/cm solution, after irradiation with 5 MED (1,250 J/m^2)

| compound | Photostability result in words |
| --- | --- |
| CCCCC(CC)COC(=O)C=Cc1ccc(OC)cc1 (stereo not shown) [Ethylhexyl Methoxycinnamate, Ethylhexyl-Methoxycinnamate] | Not photostable |
| COc1ccc(/C=C/C(=O)OCCC(C)C)cc1 [Isoamyl p-Methoxycinnamate, Isoamyl-p-Methoxycinnamate] | Not photostable |
